assay: Antagonist activity at mouse CCR2 assessed as inhibition of MCP1-induced chemotaxis after 30 mins
measure.name: IC50 (nM)
Numbers only, in nM.

Suppose we examine the compound Cc1ccc([C@]2(O)CC[C@H](N3CC[C@@H](NC(=O)CNC(=O)c4cccc(C(F)(F)F)c4)C3)CC2)cc1 ; what IC50 value has been reported?
156

###

test: Antagonist activity at CCR2 in human PBMC assessed as inhibition of MCP1-induced chemotaxis after 30 mins
measure.name: pIC50
Numbers only, as −log10 of the molar value.

For orientation, consider the following solved cases.
Report pIC50 for CCOc1ccc([C@]2(O)CC[C@H](N3CC[C@@H](NC(=O)CNC(=O)c4cccc(C(F)(F)F)c4)C3)CC2)cn1 please.
8.57

What measured pIC50 goes with O=C(CNC(=O)c1cccc(C(F)(F)F)c1)N[C@@H]1CCN([C@H]2CC[C@@](O)(c3cccnc3)CC2)C1 ?
8.41

Reported pIC50, molecule O=C(CNC(=O)c1cccc(C(F)(F)F)c1)N[C@@H]1CCN([C@H]2CC[C@@](O)(c3ccncc3)CC2)C1 : ____
8.52

I have 5 molecules here; please give me pIC50 for each one.
1. O=C(CNC(=O)c1cccc(C(F)(F)F)c1)N[C@@H]1CCN([C@H]2CC[C@@](O)(c3cccnn3)CC2)C1
2. O=C(CNC(=O)c1cccc(C(F)(F)F)c1)N[C@@H]1CCN([C@H]2CC[C@@](O)(c3ccnnc3)CC2)C1
3. Cc1ccc([C@]2(O)CC[C@H](N3CC[C@@H](NC(=O)CNC(=O)c4cccc(C(F)(F)F)c4)C3)CC2)cn1
4. O=C(CNC(=O)c1cccc(C(F)(F)F)c1)N[C@@H]1CCN([C@H]2CC[C@@](O)(c3cncnc3)CC2)C1
5. O=C(CNC(=O)c1cccc(C(F)(F)F)c1)N[C@@H]1CCN([C@H]2CC[C@@](O)(c3ncccn3)CC2)C1

1: 8.24; 2: 8.14; 3: 8.25; 4: 7.70; 5: 8.03
